The values you see were collected from patent US20210070872A1.

Target: T1, biotinylated GITR (human, UniProt Q9Y5U5 26-161, limits assumed, biotinylated (sites not given))
T1 construct: also called GITR-bio; Biotin-GITR
T1 sequence: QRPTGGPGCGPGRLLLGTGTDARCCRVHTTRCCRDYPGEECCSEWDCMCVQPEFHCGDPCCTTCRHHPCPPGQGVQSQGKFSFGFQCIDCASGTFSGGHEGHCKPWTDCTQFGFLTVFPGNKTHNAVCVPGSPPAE
Assay: BLI (Octet), biotin-GITR on streptavidin tips, antibody supernatant
QUANTITY: kon

• germline variant antibody 76 (H1917C10 / K1917C10) (antibody, V domains shown, IGHG1/IGKC expression vectors; measured from CHO culture supernatant; also called Antibody ID 76) VH: QVQLVQSGAGVKKPGASVKVSCKGSGYTFTDYAMHWVRQAPGQGLEWMGLIRTFSGDVSYNQKFRERATMTVDKSISTAYMELSRLRSDDTAVYYCAKSGTVRGFAYWGQGTLVTVSS VL: DIVMTQSPDSLAVSLGERATINCKSSQSLLNSGNQKNYLSWYQQKPGQPPKMLIYWASTRESGVPDRFSGSGSGTDFTLTISSVQAEDVAVYHCQNDYSFPYTFGQGTKLEIK = 386000 M⁻¹ s⁻¹
• germline variant antibody 43 (H1916E03 / K1916E03) (antibody, V domains shown, IGHG1/IGKC expression vectors; measured from CHO culture supernatant; also called Antibody ID 43) VH: QVQLVQSGAEVKKPGASVKVSCKGSGYTFTEYAMYWVRQAPGQGMEWIGLIRTFSGDVSYNQKFKGRATMTVDKSISTAYMELSRLRSDDTAVYYCAKSGTVRGFAYWGQGTLVTVSS VL: DIVMTQSPDSLAVSLGERATINCKSSQSLLNSGNQKNYLTWYQQKPGQPPKMLIYWASTRESGVPDRFTGSGSGTDFTLTISSVQAEDVAVYHCQNDYSYPYTFGQGTKLEIK = 373000 M⁻¹ s⁻¹
• germline variant antibody 50 (H1916F03 / K1916F03) (antibody, V domains shown, IGHG1/IGKC expression vectors; measured from CHO culture supernatant; also called Antibody ID 50) VH: QVQLVQSGTEVKKPGASVKVSCKASGYTFTDYAMYWVRQAPGQGLEWIGLIRTFSGGVSYNQKFKERVTMTVDKSISTAYMELSRLRSDDTAVYYCAKSGTVRGFAYWGQGTLVTVSS VL: DIVMTQSPDSLAVSLGERATINCKSSQSLLNSSNQKNYLTWYQQKPGQPPKMLIYWASTRESGVPDRFSGSGSGTDFTLTISSLQAEDVAVYYCQNDYSYPYTFGQGTKLEIK = 252000 M⁻¹ s⁻¹
